Attribution: patent US20180186742A1

# System: Puccinia triticina
# protocol-summary: Wheat brown rust (PUCCRT), disease control on wheat seedlings
# Assay type: in vivo
# stated-conditions: 72 h, low volume application at 121.5 g/H, 3 Day Curative, read-out: PUCCRT disease control, 3DC, LV activity
metric: pest or weed control at 121.5 g/ha

Use the examples below as a reference point.
COc1ccc([C@H](C(C)C)[C@H](C)OC(=O)[C@H](C)NC(=O)c2nccc(OC)c2OC(C)=O)c(F)c1	> 80%
COc1ccnc(C(=O)N[C@@H](C)C(=O)O[C@@H](C)[C@H](c2cccc(F)c2C)C(C)C)c1OC(C)=O	> 80%
CCC(C)[C@@H](c1ccc(F)cc1OC)[C@H](C)OC(=O)[C@H](C)NC(=O)c1nccc(OC)c1OC(C)=O (stereo partly shown)	> 80%

query: Consider the compound COc1cc(F)ccc1[C@H](C(C)C)[C@H](C)OC(=O)[C@H](C)NC(=O)c1nccc(OC)c1OC(C)=O . State its measured pest or weed control at 121.5 g/ha.
result: > 80%

* * *

Each item that follows carries a reported pest or weed control at 121.5 g/ha.
# Test system: Puccinia triticina
# protocol-summary: Wheat brown rust (PUCCRT), disease control on wheat seedlings
# Type: in vivo
# stated-conditions: 72 h, low volume application at 121.5 g/H, 3 Day Curative, wheat brown rust, read-out: PUCCRT 3DC disease control, LV activity

The examples below pair each entry with its known result.
CCC(C)[C@@H](c1ccccc1C)[C@H](C)OC(=O)[C@H](C)NC(=O)c1nccc(OC)c1OC(C)=O (some centres unmarked)	> 80%
COc1ccnc(C(=O)N[C@@H](C)C(=O)O[C@@H](C)[C@H](c2ccc(Cl)cc2F)C(C)C)c1OC(C)=O	> 80%
CCC(CC)[C@@H](c1ccccc1C)[C@H](C)OC(=O)[C@H](C)NC(=O)c1nccc(OC)c1OC(=O)C(C)C	< 80%
COc1ccnc(C(=O)N[C@@H](C)C(=O)O[C@@H](C)[C@H](c2ccccc2C)C(C)C)c1OC(=O)C(C)C	> 80%
COc1ccnc(C(=O)N[C@@H](C)C(=O)O[C@@H](C)[C@H](c2ccc3c(c2)OCO3)C(C)C)c1OC(C)=O	> 80%
COc1ccnc(C(=O)N[C@@H](C)C(=O)O[C@@H](C)[C@H](c2ccc(OC(C)C)cc2)C(C)C)c1OC(C)=O	< 80%

query: Tell us which pest or weed control at 121.5 g/ha value is on record for COc1ccnc(C(=O)N[C@@H](C)C(=O)O[C@@H](C)[C@H](c2ccccc2OC(C)C)C(C)C)c1OC(C)=O
result: < 80%

query: For CCC(C)[C@@H](c1ccccc1C)[C@H](C)OC(=O)[C@H](C)NC(=O)c1nccc(OC)c1OC(=O)C(C)C (some centres unmarked) , write its pest or weed control at 121.5 g/ha.
result: > 80%

query: Supply pest or weed control at 121.5 g/ha value. Item: COc1ccnc(C(=O)N[C@@H](C)C(=O)O[C@@H](C)[C@H](c2ccc(OC(C)C)cc2)C(C)C)c1OCOC(C)=O
result: < 80%

query: Give recorded pest or weed control at 121.5 g/ha. COc1ccnc(C(=O)N[C@@H](C)C(=O)O[C@@H](C)[C@H](c2c(F)cccc2Cl)C(C)C)c1OC(C)=O
result: > 80%

query: Hello, please tell me recorded pest or weed control at 121.5 g/ha for this one: COc1ccnc(C(=O)N[C@@H](C)C(=O)O[C@@H](C)[C@H](c2ccc(F)cc2C)C(C)C)c1OC(=O)OC(C)C
result: < 80%

query: Identify pest or weed control at 121.5 g/ha associated with the compound COc1ccnc(C(=O)N[C@@H](C)C(=O)O[C@@H](C)[C@H](c2ccc(OC(F)(F)F)cc2)C(C)C)c1OCOC(C)=O
result: > 80%

query: Indicate the recorded pest or weed control at 121.5 g/ha value for this compound: COc1ccnc(C(=O)N[C@@H](C)C(=O)O[C@@H](C)[C@H](c2ccc(C)cc2F)C(C)C)c1OC(C)=O
result: > 80%

query: Return reported pest or weed control at 121.5 g/ha. Input compound: CCC(CC)[C@@H](c1ccccc1C)[C@H](C)OC(=O)[C@H](C)NC(=O)c1nccc(OC)c1OC(C)=O
result: > 80%
